Target: Induced myeloid leukemia cell differentiation protein Mcl-1 (Homo sapiens)
Test: Mcl-1/Noxa binding inhibitor potency, dose response, biochemical, TR-FRET (AID 1417)
Details: Mcl-1/Noxa peptide interaction, cell-free TR-FRET (terbium/rhodamine), 2 h; measured here: absolute IC50
Mark met only for IC50 values smaller than 4 µM; exact matches and larger values are not met.

Incoming: Consider Cc1ccc2nc(/C(C#N)=C/c3ccc(-c4cccc([N+](=O)[O-])c4)o3)[nH]c2c1 . Does its IC50 lie strictly below 4 µM?
Outgoing: met

Incoming: Consider Cn1c(SCC(=O)Nc2ccc3nc(SCC(=O)N4CCCC4)sc3c2)nnc1-c1ccc(N)cc1 . Does its IC50 lie strictly below 4 µM?
Outgoing: met

Incoming: Consider O=C1NN(c2ccc(Cl)c(Cl)c2)C(=O)/C1=C/c1cccc(OC(=O)c2cccs2)c1 . Does its IC50 lie strictly below 4 µM?
Outgoing: not met

Incoming: Consider O=C(Cc1ccc(S(=O)(=O)N2CCOCC2)s1)Nc1nc2c(s1)CCCC2 . Does its IC50 lie strictly below 4 µM?
Outgoing: not met

Incoming: Consider CCOc1cc(CNc2ccc(N3CCCC3)cc2)cc(Cl)c1OC . Does its IC50 lie strictly below 4 µM?
Outgoing: not met

Incoming: Consider Cn1c(=O)c(C(=O)COC(=O)c2cc(-c3ccco3)nc3ccccc23)c(N)n(CC2CC2)c1=O . Does its IC50 lie strictly below 4 µM?
Outgoing: met

Incoming: Consider COC(=O)c1ccc(=O)c2nc3/c(=C/O)c(O)cc(=O)c3[nH]c12 . Does its IC50 lie strictly below 4 µM?
Outgoing: met

Incoming: Consider CC(C)CNC(=O)c1c(N)n(Cc2ccco2)c2nc3ccccc3nc12 . Does its IC50 lie strictly below 4 µM?
Outgoing: not met

Incoming: Consider CCn1c(C)cc(/C=C2\NC(=O)N(Cc3ccc(Cl)cc3)C2=O)c1C . Does its IC50 lie strictly below 4 µM?
Outgoing: not met

Incoming: Consider O=C(CSc1n[nH]c(=O)[nH]c1=O)Nc1ccc2c(c1)C(=O)c1ccccc1C2=O . Does its IC50 lie strictly below 4 µM?
Outgoing: not met

Incoming: Consider O=C(N=Nc1c(O)n(Cc2ccccc2)c2ccccc12)c1cc2ccccc2cc1O . Does its IC50 lie strictly below 4 µM?
Outgoing: not met

Incoming: Consider Cc1c(N=Nc2c(-c3ccc([N+](=O)[O-])cc3)[nH]n(C(N)=S)c2=O)cccc1[N+](=O)[O-] . Does its IC50 lie strictly below 4 µM?
Outgoing: met

Incoming: Consider O=C1NC(=Nc2ccccc2)S/C1=C\C=C\c1ccco1 . Does its IC50 lie strictly below 4 µM?
Outgoing: met

Incoming: Consider COc1ccc(C(=O)CSc2nnc(-c3ccco3)c(-c3ccco3)n2)cc1 . Does its IC50 lie strictly below 4 µM?
Outgoing: not met

Incoming: Consider O=C(/C=C/c1ccccc1)c1ccc(NC2=NCCCS2)cc1 . Does its IC50 lie strictly below 4 µM?
Outgoing: not met

Incoming: Consider CC(OC(=O)c1cccc(N2C(=O)c3ccccc3C2=O)c1)C(=O)Nc1ccc(N(C)C)cc1 (stereo not given) . Does its IC50 lie strictly below 4 µM?
Outgoing: not met

Incoming: Consider O=C(CNC(=O)C(c1ccccc1)c1ccccc1)N/N=C/c1cccnc1 . Does its IC50 lie strictly below 4 µM?
Outgoing: not met

Incoming: Consider Cc1nc2c(c(=O)n1CCC1=CCCCC1)c1nc3ccccc3nc1n2/N=C/c1ccco1 . Does its IC50 lie strictly below 4 µM?
Outgoing: not met

Incoming: Consider Cc1ccc(-c2nc3c(c(=O)[nH]c(=O)n3Cc3ccccc3)n2C)o1 . Does its IC50 lie strictly below 4 µM?
Outgoing: met

Incoming: Consider COc1cc2c(-c3ccc(O)cc3)nc3c(c(C)nn3-c3ccccc3)c2cc1OC . Does its IC50 lie strictly below 4 µM?
Outgoing: met
